# measurementTarget: HRgpA-6H (Porphyromonas gingivalis) (UniProt P28784)
# assayText: ELISA, coated HRgpA-6H
recordedMetric: Ratio OD(Variant)/OD(WT)

Completed entries (count: 2):
- binder: "KB001 mouse Fab VL S53K (Fab, V domains shown) VH: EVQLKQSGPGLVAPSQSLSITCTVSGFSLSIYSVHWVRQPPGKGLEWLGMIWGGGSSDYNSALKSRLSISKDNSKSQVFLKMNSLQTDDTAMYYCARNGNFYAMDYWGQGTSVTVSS VL: QIVLTQSPAIMSASLGERVTMTCTASSSVSSSFLHWYQQKPGSSPQLWIYSTKNLASGVPARFSGSGSGTSYSLTISSMEAEDAATYYCHQYHHSPYIYTFGGGTKLEIK"
  Ratio OD(Variant)/OD(WT): 1.07
- binder: "KB001 mouse Fab VL S30K (Fab, V domains shown) VH: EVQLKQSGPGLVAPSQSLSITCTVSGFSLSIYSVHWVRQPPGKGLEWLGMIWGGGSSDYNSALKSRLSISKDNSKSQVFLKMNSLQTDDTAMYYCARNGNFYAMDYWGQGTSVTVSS VL: QIVLTQSPAIMSASLGERVTMTCTASSSVKSSFLHWYQQKPGSSPQLWIYSTSNLASGVPARFSGSGSGTSYSLTISSMEAEDAATYYCHQYHHSPYIYTFGGGTKLEIK"
  Ratio OD(Variant)/OD(WT): 0.893

Entry KB001 mouse Fab VL S57P (Fab, V domains shown) VH: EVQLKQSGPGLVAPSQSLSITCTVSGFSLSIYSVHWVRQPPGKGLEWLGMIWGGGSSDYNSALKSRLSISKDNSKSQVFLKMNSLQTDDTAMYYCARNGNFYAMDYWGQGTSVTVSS VL: QIVLTQSPAIMSASLGERVTMTCTASSSVSSSFLHWYQQKPGSSPQLWIYSTSNLAPGVPARFSGSGSGTSYSLTISSMEAEDAATYYCHQYHHSPYIYTFGGGTKLEIK : reported Ratio OD(Variant)/OD(WT) = ?
1.05

Where do these numbers come from? They come from patent US20240400654A1.
